METHOD_NOTES: solvent given as SMILES
SETTINGS: in CS(C)=O
QUANTITY_NAME: log10 of fluorescence lifetime (log10 of the value in ns)

                                    compound                   quantity_name  measured_number
 0  NS(=O)(=O)c1ccc(N2N=C(c3ccc(O)cc3)CC2c2ccc(Cl)cc2)cc1 (stereo not drawn)  log10 of fluorescence lifetime             0.40
 1  CCOC(=O)c1ccc(NC(=O)COc2cc3c4c([nH]c3c(C)c2C)C(=O)CCC4)cc1  log10 of fluorescence lifetime             0.33
 2  COc1ccc(/N=N/c2c(O)c3ccccc3n(C)c2=O)c(S(=O)(=O)O)c1  log10 of fluorescence lifetime            -1.40
 3  O=C1/C(=C2\Sc3ccc(S(=O)(=O)O)cc3C2=O)Sc2ccc(S(=O)(=O)O)cc21  log10 of fluorescence lifetime            -0.80
 4  C(=C\c1nc2ccccc2[nH]1)/c1ccc(/C=C/c2nc3ccccc3[nH]2)cc1  log10 of fluorescence lifetime            -0.04
 5              CCC(=O)c1ccc2cc(N(C)C)ccc2c1  log10 of fluorescence lifetime             0.49
 6  CS1(C)C(/C=C/C2=C(c3ccc(C(=O)O)cc3)C(=C/C=C3/N(CCCCS(=O)(=O)[O-])c4ccccc4S3(C)C)/CCC2)=[N+](CCCCS(=O)(=O)[O-])c2ccccc21  log10 of fluorescence lifetime             0.10
 7  CCCCCCCCC1(CCCCCCCC)c2cc(-c3ccc([N+](=O)[O-])cc3)ccc2-c2ccc(-c3ccc([N+](=O)[O-])cc3)cc21  log10 of fluorescence lifetime             0.26
 8  CN(C)c1ccc(-c2cc(-c3ccc4ccccc4c3)nc(-c3ccccc3)n2)cc1  log10 of fluorescence lifetime             0.20
 9  F[B-]1(F)n2c(-c3cccs3)cc(-c3cccs3)c2N=C2C(c3cccs3)=CC(c3cccs3)=[N+]21  log10 of fluorescence lifetime             0.36
10      c1ccc2c(c1)CCc1c-2cnc2c1-c1ccccc1CC2  log10 of fluorescence lifetime             0.59
11  CN(C)c1ccc(/C=C2\CC/C(=C\c3ccc(N(C)C)cc3)C2=O)cc1  log10 of fluorescence lifetime            -0.07
12  O=C1/C(=C2\Sc3ccc(S(=O)(=O)Cl)cc3C2=O)Sc2ccc(S(=O)(=O)Cl)cc21  log10 of fluorescence lifetime            -0.77
13       COc1ccc(-c2ccc(-c3ccc(C#N)s3)s2)cc1  log10 of fluorescence lifetime             0.25
14  CCOC(=O)c1ccccc1-c1c2ccc(=O)cc-2oc2cc(OC(=O)[C@H](CSCc3ccc(C)cc3)NC(=O)OC(C)(C)C)ccc12  log10 of fluorescence lifetime             0.61
15                       N#Cc1cc2ccccc2[nH]1  log10 of fluorescence lifetime            -0.40
16  Cn1c2ccc(S(=O)(=O)Cl)cc2c(=O)c2cc(S(=O)(=O)Cl)ccc21  log10 of fluorescence lifetime             1.03
17       Cc1ccc(-c2ccc(/C=C/c3cccn3C)cn2)nc1  log10 of fluorescence lifetime            -0.19
18  COc1ccc(/C=C/C2=CC(/C=C/c3ccc(OC)cc3)=[O+][B-](OC(C)=O)(OC(C)=O)O2)cc1  log10 of fluorescence lifetime             0.35
19    C#CCNC1=C2C=CC=[N+]2[B-](F)(F)n2cccc21  log10 of fluorescence lifetime             0.24
20  COC(=O)C(Cc1ccc2oc(-c3ccc(-n4c5ccccc5c5ccccc54)cc3)nc2c1)NC(=O)OC(C)(C)C (stereo not drawn)  log10 of fluorescence lifetime             0.74
21  CC(=O)Nc1ccc(S(=O)(=O)O)c(/N=N/c2c(O)c3ccccc3n(C)c2=O)c1  log10 of fluorescence lifetime            -1.22
22  COc1nc(Nc2ccc3c4cccc5cccc(c6cccc2c63)c54)nc(OC)n1  log10 of fluorescence lifetime             0.60
23  CC(C)(C)NS(=O)(=O)c1ccc2c(c1)C(=O)/C(=C1\Sc3ccc(S(=O)(=O)NC(C)(C)C)cc3C1=O)S2  log10 of fluorescence lifetime            -1.15
24       O=C1/C(=C2\Sc3ccccc3C2=O)Sc2ccccc21  log10 of fluorescence lifetime            -0.77
25                    Cc1cc(=O)c2ccc(N)cc2o1  log10 of fluorescence lifetime            -0.10
26  NS(=O)(=O)c1ccc(N2N=C(c3ccc(O)cc3)CC2c2ccc([N+](=O)[O-])cc2)cc1 (stereo not drawn)  log10 of fluorescence lifetime             0.39
27  CCN(CC)c1ccc(C=Cc2nc3nc4ccccc4nc3s2)c(OC)c1  log10 of fluorescence lifetime            -0.39
28  CN(C)c1ccc(/C=C/c2nc3c4ccccc4c4ccccc4c3[nH]2)cc1  log10 of fluorescence lifetime            -0.42
29                 Cn1c2ccccc2c(=O)c2ccccc21  log10 of fluorescence lifetime             0.95
30  c1ccc(Nc2nc(Nc3ccccc3)nc(Nc3ccc4c5cccc6cccc(c7cccc3c74)c65)n2)cc1  log10 of fluorescence lifetime             0.63
31  c1cc2c3ccc[n+]4cccc(c5ccc[n+](c1)c25)c34  log10 of fluorescence lifetime             0.64
32       COC(=O)c1ccc(C#Cc2ccc(N(C)C)cc2)cc1  log10 of fluorescence lifetime             0.28

----------
METHOD_NOTES: solvent given as SMILES
SETTINGS: in ClCCl
This section presents compounds with their documented log10(fluorescence lifetime) values.
QUANTITY_NAME: log10(fluorescence lifetime) (log10 of the value in ns)

>>> print(df.to_string())
                                smiles_code                 quantity_name  measured_number
0  OCCSc1cccc2[n+]1[B-](F)(F)n1c(c3cccc4cccc1c43)=N2  log10(fluorescence lifetime)             0.86
1  N#Cc1ncc(-c2c3ccccc3c(-c3cnc(C#N)nc3)c3ccccc23)cn1  log10(fluorescence lifetime)             0.76
2  COc1cc(N(c2ccccc2)c2ccc(C=C(C#N)C#N)c(OC)c2)ccc1C=C(C#N)C#N  log10(fluorescence lifetime)            -0.82
3  COc1ccc(C#Cc2ccc(C#Cc3ccc(P(=O)(c4ccccc4)c4ccccc4)cc3)cc2)cc1  log10(fluorescence lifetime)            -0.06
4  CCc1c(C)[nH]c(C2=[N+]3C(=C(C)c4c(C)c(CC)c(C)n4[B-]3(F)F)c3ccccc32)c1C  log10(fluorescence lifetime)             0.79
5  c1ccc2c(-c3cncnc3)c3ccccc3c(-c3cncnc3)c2c1  log10(fluorescence lifetime)             0.86

----------
This section presents molecules with their documented log10 fluorescence lifetime values.
METHOD_NOTES: solvent given as SMILES
SETTINGS: in ClCCl
QUANTITY_NAME: log10 fluorescence lifetime (log10 of the value in ns)

>>> df
                                smiles_code  measured_number
0  CC(C)(C)NC(=O)c1ccc(-c2cc3ccccc3s2)c2ccc3c4ccccc4c4ccccc4c3c12            -0.16
1  CCN(CC)c1ccc(C=Cc2nc3nc4ccccc4nc3s2)c(OC)c1             0.11
2  O=c1oc2ccccc2cc1-c1ccc(-c2ccc(-c3cc4ccccc4oc3=O)cc2)cc1             0.98
3  CCOC(=O)c1ccc2nc(/N=N/c3ccc(N(CC)CC)cc3)sc2c1             0.73
4  CC(C)c1cccc(C(C)C)c1N1C(=O)c2cccc3c(Oc4ccc(C(C)(C)c5ccccc5)cc4)ccc(c23)C1=O             0.08

----------
METHOD_NOTES: solvent given as SMILES
SETTINGS: in CS(C)=O
QUANTITY_NAME: log10(fluorescence lifetime) (log10 of the value in ns)

SMILES_CODE	MEASURED_NUMBER
CCOC(=O)CN(CC(=O)OCC)c1ccc(-c2cc(-c3ccccn3)nc(-c3ccccn3)c2)cc1	0.83
CN(C)c1c2ccccc2cc2ccccc12	0.91
Cn1c(=O)c(/N=N/c2ccc(Nc3ccc([N+](=O)[O-])cc3S(=O)(=O)O)cc2)c(O)c2ccccc21	-1.52
COc1ccc(-c2nc(-c3ccccc3O)c(-c3ccccc3O)n2-c2ccc(C)cc2)cc1	0.20
CC1(C)C(/C=C/C2=C(c3ccc(C(=O)O)cc3)C(=C/C=C3/N(CCCCS(=O)(=O)[O-])c4ccc5ccccc5c4C3(C)C)/CCC2)=[N+](CCCCS(=O)(=O)[O-])c2ccc3ccccc3c21	-0.01
N#Cc1cccc2[nH]ccc12	0.87
CN(C)c1ccc(-c2nc3c(c4c2-c2ccccc2CC4)-c2ccccc2CC3)cc1	0.33
COc1ccc(C#Cc2ccc(C#Cc3ccc(P(=O)(c4ccc(C#Cc5ccc(C#Cc6ccc(OC)cc6)cc5)cc4)c4ccc(C#Cc5ccc(C#Cc6ccc(OC)cc6)cc5)cc4)cc3)cc2)cc1	0.09
CC1(C)C(/C=C/C=C/C=C/C=C2/N(CCCCS(=O)(=O)[O-])c3ccc4ccccc4c3C2(C)C)=[N+](CCCCS(=O)(=O)[O-])c2ccc3ccccc3c21	-0.01
Cn1c(=O)c(/N=N/c2ccc(Nc3ccccc3)c(S(=O)(=O)O)c2)c(O)c2ccccc21	-1.30
Cc1ccc(-n2c(-c3ccccc3O)nc(-c3ccccc3O)c2-c2ccccc2O)cc1	0.57
COc1ccc2c(=O)c3c([nH]c2c1)-c1cc(Cl)ccc1NC3(C)C	1.05
CCCCCCCCCCCCOc1cc2cc(N(C)C)ccc2cc1C#N	0.74

Entry source: the Deep4Chem optical property database
